Non-standard residues stand in square brackets, D forms with d. Residues, ends and D or L forms follow the SMILES beside them. Dmt = Cc1cc(O)cc(C)c1C[C@H](N)C(=O)O
So I've got a bunch of compounds here, and I need their pIC50 values.
Note: pIC50 values are expressed as the negative base-10 logarithm of concentration in M.

Hi! What's the reported pIC50 for `Cc1cc(O)cc(C)c1C[C@H](N)C(=O)N[C@H](CCCNC(=N)N)C(=O)N[C@@H](Cc1ccccc1-c1ccc(F)cc1)C(=O)NCC(N)=O` on μ opioid receptor (MOP) (Homo sapiens)?
9.33

Hi! What's the reported pIC50 for `C=Cc1ccccc1C[C@H](NC(=O)[C@@H](C)N(C)C(=O)[C@@H](N)Cc1c(C)cc(O)cc1C)C(=O)NCC(N)=O` on μ opioid receptor (MOP) (Homo sapiens)?
9.44

Hi! What's the reported pIC50 for Cc1cc(O)cc(C)c1C[C@H](N)C(=O)N[C@H](CCCNC(=N)N)C(=O)N[C@@H](Cc1ccccc1)C(=O)NCC(N)=O [Compound 19, Dmt-D-Arg-Phe-Gly-NH2] (H-[Dmt][dR]FG-NH2) on μ opioid receptor (MOP) (Homo sapiens)?
10.00

Hi! What's the reported pIC50 for `COc1ccc(-c2ccccc2C[C@H](NC(=O)[C@@H](CCCNC(=N)N)NC(=O)[C@@H](N)Cc2c(C)cc(O)cc2C)C(=O)NCC(N)=O)cc1` on μ opioid receptor (MOP) (Homo sapiens)?
9.33
